Species: Rattus norvegicus
experimentalDetails: Open TG-GATES - Regimen: Single
Type: toxicity, organism-based, Sprague-Dawley
Design: regimen Single, gender Male, age 6 weeks
runParameters: in vivo, po, 300 mg/kg, 6 h, tissue Blood, route gavage, dose level Middle
parameter: Lym (%)
Answers are plain numbers, in %.

Known Lym results, listed for orientation:
compound="COC1=CC(=O)C[C@@H](C)[C@]12Oc1c(Cl)c(OC)cc(OC)c1C2=O [GRISEOFULVIN]" recordednumber=72.6
compound="CCOC(=O)CCC(=O)O[C@H]1[C@H](O[C@@H]2[C@@H](C)[C@H](O[C@H]3C[C@@](C)(OC)[C@@H](O)[C@H](C)O3)[C@@H](C)C(=O)O[C@H](CC)[C@@](C)(O)[C@H](O)[C@@H](C)C(=O)[C@H](C)C[C@@]2(C)O)O[C@H](C)C[C@@H]1N(C)C [ERYTHROMYCIN ETHYLSUCCINATE]" recordednumber=77.8

Batch request: Lym per item, same order as input.
1. COc1ccc2[nH]c([S+]([O-])Cc3ncc(C)c(OC)c3C)nc2c1 (centres undefined) [OMEPRAZOLE]
2. NC(N)=Nc1nc(CSCCC(N)=NS(N)(=O)=O)cs1 [FAMOTIDINE]

[74.4, 75]
